Data provenance: PubChem BioAssay (NCI)

system: UACC-62 melanoma; assay: NCI tumour cell line growth inhibition, 48 h
recorded.endpoint: TGI

Please review the entries below; each comes with its answer.
{"compound": "C/C=C(\\C)C(=O)NC1=CC[C@@]2(C)C(=CCC3C2CC[C@@]2(C)C3CC[C@@H]2C(C)N(C)C)C1=O (some centres undefined)", "assayed.system": "UACC-62 melanoma", "TGI": "3.85 µM"}
{"compound": "CN1Cc2cc3cc4c(cc3nc2N(C)C1)OCCO4", "assayed.system": "UACC-62 melanoma", "TGI": "> 100 µM"}

Could you now consider this next compound?
Prompt: Answer with TGI of "C=CCOc1cc(NC(=S)c2ccoc2C)ccc1OC" measured for UACC-62 melanoma.
Response: > 100 µM

----------
test system: MDA-MB-435
recorded.endpoint: GI50

{"molecule": "C/C=C(\\C)C(=O)NC1=CC[C@@]2(C)C(=CCC3C2CC[C@@]2(C)C3CC[C@@H]2C(C)N(C)C)C1=O (stereo not given in full)", "GI50": "2.35 µM"}
{"molecule": "CCN(Cc1ccc(Cl)cc1)c1ccc(CO)c(Cl)c1", "GI50": "11 µM"}
{"molecule": "Oc1c(-c2nnc(-c3ccccc3Cl)o2)sc2nnc(-c3ccccc3)c(-c3ccccc3)c12", "GI50": "4.26 µM"}
{"molecule": "C[C@@]1(C(=O)O)CCC[C@]2(C)C1CC[C@@]13CC(=O)[C@@](CO)(CC[C@]12O)C3 (stereo not given in full)", "GI50": "> 100 µM"}

Prompt: Answer with GI50 of "COc1ccc(/C=C/C(=O)c2cc(OC)c(OC)c(OC)c2)cc1OCc1cn(Cc2ccc(F)cc2)nn1" measured for MDA-MB-435.
Response: 2.78 µM

----------
Entries and their measured GI50 follow.
test system: SF-295 CNS; assay: NCI tumour cell line growth inhibition, 48 h

{"compound": "Fc1ccc(C2CC(c3cccc(Nc4ccncc4)c3)=NN2c2ccc(Cl)cc2)cc1 (stereo not drawn)", "recorded.endpoint": "GI50", "result": "1.8 µM"}
{"compound": "CCN(Cc1ccc(Cl)cc1)c1ccc(CO)c(Cl)c1", "recorded.endpoint": "GI50", "result": "0.997 µM"}
{"compound": "CCCCON(OC(=O)c1ccc2ccccc2c1)C(=O)c1ccccc1", "recorded.endpoint": "GI50", "result": "> 100 µM"}
{"compound": "CC(=O)NC1C(OC[C@@H](CC(=O)N[C@@H](CC(=O)O)CC(=O)N[C@H](CC(=O)N[C@@H](CCCN)CC(=O)N[C@@H](CCCN)CC(=O)N[C@H](CC(N)=O)C(C)C)C(C)C)NC(=O)C[C@@H](N)C(C)C)OC(CO)C(O)C1O (stereo partly drawn)", "recorded.endpoint": "GI50", "result": "> 100 µM"}
{"compound": "O=c1[nH]c(=O)c2cn[nH]c2[nH]1", "recorded.endpoint": "GI50", "result": "> 100 µM"}

Prompt: Answer with GI50 of "Cc1nnn[n-]1.N.N.N.N.N.[Cl-].[Co+3]" measured for SF-295 CNS.
Response: > 100 µM

Prompt: Answer with GI50 of "C[C@]12CC[C@@H]3c4ccc(OC(=O)N(CCCl)CCCl)cc4CC[C@H]3[C@@H]1CC[C@@H]2O" measured for SF-295 CNS.
Response: 0.819 µM

Prompt: Answer with GI50 of "COc1ncnc2c(-c3ccccc3)cn(COCc3ccccc3)c12" measured for SF-295 CNS.
Response: 2.82 µM

Prompt: Answer with GI50 of "C=CCN=c1sc2c(n1NC(=O)c1cc3ccc1CCc1ccc(cc1)CC3)C(=O)c1ccccc1C2=O" measured for SF-295 CNS.
Response: 1.68 µM

Prompt: Answer with GI50 of "Clc1nc(Cl)c2ncn(CC3(Cn4cnc5c(Cl)nc(Cl)nc54)COC3)c2n1" measured for SF-295 CNS.
Response: 1.56 µM

Prompt: Answer with GI50 of "CCOC(=O)N1CCN(/[N+]([O-])=N/Oc2ccc([N+](=O)[O-])cc2[N+](=O)[O-])CC1" measured for SF-295 CNS.
Response: 1.73 µM

Prompt: Answer with GI50 of "C=C(CN1C(=O)CN(C)C1=O)c1ccc(C(=O)Nc2ccccc2N)cc1" measured for SF-295 CNS.
Response: 19.5 µM

Prompt: Answer with GI50 of C[C@@]1(C(=O)O)CCC[C@]2(C)C1CC[C@@]13CC(=O)[C@@](CO)(CC[C@]12O)C3 (stereo partly drawn) measured for SF-295 CNS.
Response: > 100 µM
